Assayed Target: Histamine H3 receptor (Homo sapiens, UniProt Q9Y5N1)
Sequence (Q9Y5N1 whole entry): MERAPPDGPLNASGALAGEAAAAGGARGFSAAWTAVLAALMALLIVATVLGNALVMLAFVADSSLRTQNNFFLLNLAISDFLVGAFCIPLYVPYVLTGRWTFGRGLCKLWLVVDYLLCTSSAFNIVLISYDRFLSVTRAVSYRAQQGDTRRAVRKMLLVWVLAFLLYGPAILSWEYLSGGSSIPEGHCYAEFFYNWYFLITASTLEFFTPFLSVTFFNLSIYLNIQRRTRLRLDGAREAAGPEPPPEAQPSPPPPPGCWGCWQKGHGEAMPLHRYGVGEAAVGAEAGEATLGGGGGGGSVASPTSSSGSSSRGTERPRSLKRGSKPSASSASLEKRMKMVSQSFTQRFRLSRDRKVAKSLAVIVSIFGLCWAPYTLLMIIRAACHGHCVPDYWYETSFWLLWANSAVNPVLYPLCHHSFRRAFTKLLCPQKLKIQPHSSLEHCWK
Measurement Protocol: Displacement of [3H]-N-alpha-methylhistamine from human recombinant histamine H3 receptor after 30 mins by scintillation counting
pKi: −log10 of the molar value.
Recorded Metric: pKi

Study these solved cases before continuing.
Compound | pKi
c1cnc(C2CN(c3nnc(N4CCC(N5CCCCC5)CC4)s3)CCO2)cn1 (configuration not stated) | 8.10
COC1(c2ccccn2)CCCN(c2nnc(N3CCC(N4CCCCC4)CC3)s2)C1 (configuration not stated) | 7.96
OC1CCCN(c2nnc(N3CCC(N4CCCCC4)CC3)s2)C1 (configuration not stated) | 7.34

P: C1=C(c2ncccn2)CN(c2nnc(N3CCC(N4CCCCC4)CC3)s2)CC1
Q: O=C1CCCCN1c1nnc(N2CCC(N3CCCCC3)CC2)s1
Problem: Lower value of pKi belongs to which: P or Q ? // output: label of the selected item
Solution: Q
